# METHOD_DESCRIPTION: Plasma pharmacokinetics after multiple oral doses (MAD cohorts)
# Type: in vivo, human
# SETTINGS: human, plasma, oral, 5 mg, Day 1; 5 mg qd × 14 d; geometric mean (geometric CV%); n = 6; read-out: Cmax
READOUT_KIND: Cmax (ng/mL)
# output: bare number, implied unit ng/mL

Ask: # lookup: Cmax of CCc1nc(-c2ccc3c(c2)CC[C@H]3NC(=O)c2cnn(C)c2)no1
Reply: 28

----------
# METHOD_DESCRIPTION: Plasma pharmacokinetics after multiple oral doses (MAD cohorts)
# Type: in vivo, human
# SETTINGS: human, plasma, oral, 10 mg, Day 14; 10 mg qd × 14 d; geometric mean (geometric CV%); n = 6; read-out: AUCtau
READOUT_KIND: AUC (ng·h/mL)
# output: bare number, implied unit ng·h/mL

Ask: # lookup: AUC of CCc1nc(-c2ccc3c(c2)CC[C@H]3NC(=O)c2cnn(C)c2)no1
Reply: 2630
